Settings: buffer; pH 7.4; 200.0 µM
Observable: solubility kinetic

| Compound | Observed Result |
| --- | --- |
| COc1ccc(-c2ccc(CCC(=O)O)n2NC(=O)c2ccc(O)cc2)cc1 | > 57.1 µg/mL |
| CC1=C(C)CC(C(=O)NC(C)CCc2ccccc2)C(C(=O)O)C1 (configuration not stated) | > 49.4 µg/mL |
| Cc1cc(N2CCN(C(=O)Nc3ccc(F)cc3F)CC2)c2ccccc2n1 | > 57.4 µg/mL |
| O=C(Nc1ccccc1C(F)(F)F)N1CCCC1c1cccnc1 (configuration not stated) | > 50.3 µg/mL |
| CC1CCN(C(=O)Cn2cc(C(F)(F)F)ccc2=O)c2ccccc2S1 (configuration not stated) | > 57.4 µg/mL |
| COc1cccc2cc(C(=O)NCCc3ccccc3)c(=O)oc12 | < 0.7 µg/mL |
| O=C(O)c1cccc2c1C(=O)N(Cc1ccccc1)C2 | > 40.1 µg/mL |
| CC(=O)NC(CC(=O)O)c1ccc(F)cc1 (configuration not stated) | > 33.8 µg/mL |
| CC(=O)Nc1ccc(OCC(=O)N2CCc3ccccc3C2)cc1 | > 48.7 µg/mL |
| O=C(Cc1ccc(-c2ccccc2)cc1)NC1CCCC1 | < 0.6 µg/mL |
| O=C(Nc1ccccc1C(=O)NC1CC1)c1ccc([N+](=O)[O-])o1 | > 47.3 µg/mL |
| Cc1onc(-c2ccccc2Cl)c1C(=O)N(C)Cc1ccccc1 | > 51.1 µg/mL |

---

Settings: buffer; pH 7.4; 200.0 µM
Observable: solubility kinetic

| Molecule | Observed Result |
| --- | --- |
| Cc1cccc(NC2SC(=O)NC2=O)c1 (stereo unspecified) | > 33.3 µg/mL |
| CCOC(=O)C(NC(=O)C1C(C)N1S(=O)(=O)c1ccc(C)cc1)C(=O)OCC (stereo unspecified) | > 61.9 µg/mL |
| CC1CC(C)(C)NC(=S)N1CCC(=O)NCc1ccc(F)cc1 (stereo unspecified) | > 50.6 µg/mL |
| Cc1cccc(C)c1N1CCN(S(=O)(=O)c2ccccc2)CC1 | < 0.4 µg/mL |
| Cc1ccc(C(=O)NC(C)C2CCCO2)o1 (stereo unspecified) | > 33.5 µg/mL |
| COc1ccc(CCNC(=O)c2cc3ccccc3oc2=O)cc1 | < 0.7 µg/mL |
| O=C(O)Cc1ccc(NS(=O)(=O)c2ccc3ccccc3c2)cc1 | > 51.2 µg/mL |
| OC(CN1CCOCC1)(c1ccccc1)c1ccccn1 (stereo unspecified) | > 42.7 µg/mL |
| COc1cc(CO)ccc1OCC(=O)N1CCc2ccccc21 | > 47 µg/mL |
| CC(=O)c1ccccc1OCCOc1ncnc2sccc12 | > 47.2 µg/mL |
| O=C(CSCc1ccccc1F)NCc1ccc(F)cc1 | > 46.1 µg/mL |

---

Details: buffer; pH 7.4; 200.0 µM
Please note: 1 applies when solubility kinetic is 40 µg/mL or greater, and -1 applies otherwise.

| Compound | Answer Label |
| --- | --- |
| CC(NC(=O)COc1ccccc1Cl)c1ccccc1 (centres undefined) | 1 |
| O=C1NC(c2ccc(Br)cc2)Nc2ccccc21 (centres undefined) | -1 |
| C=CCC1(Cl)C(=O)C(Cl)=C(N2CCN(C)CC2)C1(OC)OC (centres undefined) | 1 |
| N/C(=N\OC(=O)Nc1cccc(C(F)(F)F)c1)c1ccno1 | -1 |
| CCOc1ccccc1NC(=O)c1ccc([N+](=O)[O-])cc1 | -1 |
| CCCCN1C(=O)C(=O)N(CC(=O)Nc2ccccc2C(C)=O)C1=O | 1 |
| O=C(COc1ccc(S(=O)(=O)NC2CCCCC2)cc1)NC1CC1 | 1 |
| Cn1c(N)c(C(=O)COC(=O)Cc2cccs2)c(=O)n(C)c1=O | 1 |
| CN1CCN(C(=S)NC(=O)c2ccc(Br)cc2)CC1 | 1 |
| N#Cc1cccc(NC(=O)c2cncn2-c2ccccc2)c1 | 1 |
| CCCN1CCC(NC(=O)Cc2ccccc2OC)CC1 | 1 |
| CC(C)(C)c1cc(C(=S)N2CCCC2)cc(C(C)(C)C)c1O | -1 |
